experimental-system: CDK8 (Homo sapiens)
Sequence (P49336 whole entry): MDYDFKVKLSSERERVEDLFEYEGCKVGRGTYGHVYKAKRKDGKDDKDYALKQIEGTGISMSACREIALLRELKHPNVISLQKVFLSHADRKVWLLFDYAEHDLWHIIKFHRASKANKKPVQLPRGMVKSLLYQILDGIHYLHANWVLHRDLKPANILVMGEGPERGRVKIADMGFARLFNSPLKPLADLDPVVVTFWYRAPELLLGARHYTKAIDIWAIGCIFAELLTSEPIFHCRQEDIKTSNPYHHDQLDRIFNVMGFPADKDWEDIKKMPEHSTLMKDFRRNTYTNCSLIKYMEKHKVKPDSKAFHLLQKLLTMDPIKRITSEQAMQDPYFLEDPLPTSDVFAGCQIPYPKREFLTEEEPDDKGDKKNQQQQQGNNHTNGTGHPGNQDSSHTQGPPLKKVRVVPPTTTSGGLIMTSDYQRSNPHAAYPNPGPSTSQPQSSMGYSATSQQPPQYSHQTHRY
Sequence (P24863 whole entry partner): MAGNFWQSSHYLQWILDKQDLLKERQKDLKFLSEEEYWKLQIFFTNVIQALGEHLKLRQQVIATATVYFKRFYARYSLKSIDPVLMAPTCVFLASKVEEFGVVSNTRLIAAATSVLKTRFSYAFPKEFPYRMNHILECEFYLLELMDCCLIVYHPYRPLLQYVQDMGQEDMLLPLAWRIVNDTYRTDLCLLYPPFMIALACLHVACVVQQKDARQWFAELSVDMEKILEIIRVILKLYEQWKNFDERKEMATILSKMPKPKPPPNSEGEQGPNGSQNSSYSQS
IC50 class ranges: interval 1: < 0.2 µM; interval 2: ≥ 0.2 µM and < 1 µM; interval 3: ≥ 1 µM

Dear colleague, I would appreciate it if you could identify the bin for Cc1cnccc1Nc1cnc(Nc2ccc(CC(C)C)cc2)nc1 [Compound A21] and reply at your convenience. interval 2

Dear colleague, I would appreciate it if you could identify the bin for c1cc(Nc2cnc(Nc3ccc(C4CC4)cc3)nc2)ccn1 [Compound A16] and reply at your convenience. interval 2

Dear colleague, I would appreciate it if you could identify the bin for CC(C)Cc1ccc(Nc2ncc(Nc3ccnc(N)c3)cn2)cc1 [Compound A159] and reply at your convenience. interval 1

Dear colleague, I would appreciate it if you could identify the bin for c1cc(Nc2cnc(Nc3ccc4c(c3)CCCC4)nc2)ccn1 [Compound A37] and reply at your convenience. interval 1

Dear colleague, I would appreciate it if you could identify the bin for COc1cnccc1Nc1cnc(Nc2ccc(CC(C)C)cc2)nc1C [Compound A25] and reply at your convenience. interval 1

Dear colleague, I would appreciate it if you could identify the bin for Cc1cc(C)cc(-c2cnc(Nc3ccc(CC(C)C)cc3)nc2)c1 [Compound A88] and reply at your convenience. interval 3

Dear colleague, I would appreciate it if you could identify the bin for Cc1cc(C#N)cc(-c2cnc(Nc3ccc(CC(C)C)cc3)nc2)c1 [Compound A94] and reply at your convenience. interval 2

Dear colleague, I would appreciate it if you could identify the bin for CC(C)Cc1ccc(Nc2ncc(Nc3ccncc3C3CC3)cn2)cc1 [Compound A164] and reply at your convenience. interval 2

Dear colleague, I would appreciate it if you could identify the bin for Cc1ccc(-c2cnc(Nc3ccc(CC(C)C)cc3)nc2)cc1 [Compound A103] and reply at your convenience. interval 3

Dear colleague, I would appreciate it if you could identify the bin for FC(F)(F)Oc1ccc(Nc2ncc(Nc3ccncc3)cn2)cc1 [Compound A145] and reply at your convenience. interval 1

Dear colleague, I would appreciate it if you could identify the bin for Cc1cc(Nc2cnc(Nc3ccc(CC4CC4)cc3)nc2)ccn1 [Compound A42] and reply at your convenience. interval 2

Dear colleague, I would appreciate it if you could identify the bin for CC(C)Cc1cccc(Nc2ncc(Nc3ccncc3)cn2)c1 [Compound A28] and reply at your convenience. interval 3

Dear colleague, I would appreciate it if you could identify the bin for CC(C)Cc1ccc(Nc2ncc(Oc3ccncc3)cn2)cc1 [Compound A143] and reply at your convenience. interval 3

Dear colleague, I would appreciate it if you could identify the bin for c1cc(Nc2cnc(Nc3ccc(CC4CC4)cc3)nc2)ccn1 [Compound A45] and reply at your convenience. interval 2

Dear colleague, I would appreciate it if you could identify the bin for CC(C)Cc1ccc(Nc2ccc(-c3ccc(C#N)cc3)cn2)cc1 [Compound A79] and reply at your convenience. interval 3

Dear colleague, I would appreciate it if you could identify the bin for Fc1ccc(Nc2ccc(Oc3ccncc3)cn2)cc1 [Compound A81] and reply at your convenience. interval 3

Dear colleague, I would appreciate it if you could identify the bin for Cc1cnccc1Nc1cnc(Nc2ccc(CC(C)C)cc2C)nc1 [Compound A165] and reply at your convenience. interval 2

Dear colleague, I would appreciate it if you could identify the bin for Cc1cc(Nc2cnc(Nc3ccc(CC(C)C)cc3)nc2)c(F)cn1 [Compound A174] and reply at your convenience. interval 1

Dear colleague, I would appreciate it if you could identify the bin for Cc1cc(Nc2cnc(Nc3cccc(C4CC4)c3)nc2)ccn1 [Compound A24] and reply at your convenience. interval 3
